Experiment: Compound pharmacokinetic experiment, single intragastric administration
Type: in vivo
Settings: mouse, plasma, male mice, oral dosage 15 mg/Kg, read-out: Peak plasma concentration Cmax
Method: Compound Pharmacokinetic Experiment The pharmacokinetics of the compounds of the present disclosure was determined. This application used the following methods to determine the pharmacokinetic parameters of the compounds. For the healthy male adult mice used in the study, each group of animals was given a single intragastric administration of 5-100 mg/Kg. […] Blood was collected at different time points after administration, and the plasma content of the compound was determined (LC-MS/MS). […]
Provide the reported Cmax of each item.
Give bare numbers, in nM.

A selection of reference data follows.
{"columns": ["COMPOUND", "UNIT SYMBOL", "NUMERIC READOUT"],
 "data": [
  ["C=CC(=O)Nc1ccccc1C(=O)Nc1cc(CCc2cc(OC)cc(OC)c2)[nH]n1 [Control a, reference compound]", "nM", 377],
  ["C=CC(=O)Nc1cc(N2CCN(CC(F)(F)C(F)(F)F)CC2)ccc1C(=O)Nc1cc(CCc2cc(OC)cc(OC)c2)n[nH]1 [Compound 14]", "nM", 344],
  ["C=CC(=O)Nc1cc(N2CCN(CCC(F)(F)F)CC2)ccc1C(=O)Nc1cc(CCc2cc(OC)cc(OC)c2)n[nH]1 [Compound 1]", "nM", 1220],
  ["C=CC(=O)Nc1cc(N2CCN(CCC(F)(F)F)C(C)C2)ccc1C(=O)Nc1cc(CCc2cc(OC)cc(OC)c2)n[nH]1 (stereo not drawn) [Compound 12]", "nM", 663],
  ["C=CC(=O)Nc1cc(N2CCN(CCC(F)(F)F)CC2)c(OC)cc1C(=O)Nc1cc(CCc2cc(OC)cc(OC)c2)n[nH]1 [Compound 10]", "nM", 1250]
]}

## Input Please give the measured Cmax for this compound: C=CC(=O)Nc1cc(N2CCN(CC(F)(F)F)CC2)ccc1C(=O)Nc1cc(CCc2cc(OC)cc(OC)c2)n[nH]1 [Compound 2]
## Output 2580

====

assay: Compound pharmacokinetic experiment, single intragastric administration; format: in vivo; settings: mouse, plasma, male mice, oral dosage 15 mg/Kg, read-out: Plasma exposure AUC
READOUT LABEL: AUC (µM·h)
Answers are plain numbers, in µM·h.

{"columns": ["COMPOUND", "AUC / µM·h"],
 "data": [
  ["C=CC(=O)Nc1cc(N2CCN(CCC(F)(F)F)CC2)c(OC)cc1C(=O)Nc1cc(CCc2cc(OC)cc(OC)c2)n[nH]1", 2.41],
  ["C=CC(=O)Nc1cc(N2CCN(CCC(F)(F)F)CC2)ccc1C(=O)Nc1cc(CCc2cc(OC)cc(OC)c2)n[nH]1", 2.27],
  ["C=CC(=O)Nc1cc(N2CCN(CCC(F)(F)F)C(C)C2)ccc1C(=O)Nc1cc(CCc2cc(OC)cc(OC)c2)n[nH]1 (stereo not drawn)", 1.42],
  ["C=CC(=O)Nc1ccccc1C(=O)Nc1cc(CCc2cc(OC)cc(OC)c2)[nH]n1 [Control a, reference compound]", 0.404],
  ["C=CC(=O)Nc1cc(N2CCN(CC(F)(F)C(F)(F)F)CC2)ccc1C(=O)Nc1cc(CCc2cc(OC)cc(OC)c2)n[nH]1", 1.15]
]}

Lab note: next compound to report on.
## Input Please give the measured AUC for this compound: C=CC(=O)Nc1cc(N2CCN(CC(F)(F)F)CC2)ccc1C(=O)Nc1cc(CCc2cc(OC)cc(OC)c2)n[nH]1
## Output 7.52

====

biological target: FGFR4 (Homo sapiens); construct: purchased Invitrogen PR4380A; test: Enzymatic activity test of FGFR inhibitor, Caliper model; type: biochemical
Sequence (P22455 22-802): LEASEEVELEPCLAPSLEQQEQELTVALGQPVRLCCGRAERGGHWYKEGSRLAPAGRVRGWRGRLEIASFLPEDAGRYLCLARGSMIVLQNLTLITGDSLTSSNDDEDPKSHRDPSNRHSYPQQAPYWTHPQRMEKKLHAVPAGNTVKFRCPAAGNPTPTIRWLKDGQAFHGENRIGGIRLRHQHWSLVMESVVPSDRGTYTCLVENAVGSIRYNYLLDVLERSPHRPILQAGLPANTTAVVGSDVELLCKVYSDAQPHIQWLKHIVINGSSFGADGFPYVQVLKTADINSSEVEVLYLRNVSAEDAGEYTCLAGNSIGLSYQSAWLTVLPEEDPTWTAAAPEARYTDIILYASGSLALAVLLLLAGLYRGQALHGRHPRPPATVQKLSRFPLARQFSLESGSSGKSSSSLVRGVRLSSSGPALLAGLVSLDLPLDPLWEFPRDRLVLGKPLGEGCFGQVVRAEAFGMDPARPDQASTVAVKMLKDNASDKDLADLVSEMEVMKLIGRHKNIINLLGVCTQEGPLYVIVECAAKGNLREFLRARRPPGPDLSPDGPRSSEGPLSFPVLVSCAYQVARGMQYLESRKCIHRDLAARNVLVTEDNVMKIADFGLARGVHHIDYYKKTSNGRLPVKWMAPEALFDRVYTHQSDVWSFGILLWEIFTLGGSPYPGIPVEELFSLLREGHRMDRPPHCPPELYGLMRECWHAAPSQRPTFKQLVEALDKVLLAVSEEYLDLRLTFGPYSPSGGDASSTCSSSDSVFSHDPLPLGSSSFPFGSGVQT
READOUT LABEL: IC50 (nM)
Give bare numbers, in nM.

## Input Please give the measured IC50 for this molecule: C=CC(=O)Nc1cc(N2CCN(CC(F)F)CC2)ccc1C(=O)Nc1cc(CCc2cc(OC)cc(OC)c2)n[nH]1
## Output 5.7

====

biological target: FGFR1 (Homo sapiens); construct: purchased Cama (sic; Carna) 08-133; assay: Enzymatic activity test of FGFR inhibitor, Caliper model; format: biochemical; settings: Caliper, kinase pre-incubation 10 minutes; read-out: FGFR1
Sequence (P11362 22-822): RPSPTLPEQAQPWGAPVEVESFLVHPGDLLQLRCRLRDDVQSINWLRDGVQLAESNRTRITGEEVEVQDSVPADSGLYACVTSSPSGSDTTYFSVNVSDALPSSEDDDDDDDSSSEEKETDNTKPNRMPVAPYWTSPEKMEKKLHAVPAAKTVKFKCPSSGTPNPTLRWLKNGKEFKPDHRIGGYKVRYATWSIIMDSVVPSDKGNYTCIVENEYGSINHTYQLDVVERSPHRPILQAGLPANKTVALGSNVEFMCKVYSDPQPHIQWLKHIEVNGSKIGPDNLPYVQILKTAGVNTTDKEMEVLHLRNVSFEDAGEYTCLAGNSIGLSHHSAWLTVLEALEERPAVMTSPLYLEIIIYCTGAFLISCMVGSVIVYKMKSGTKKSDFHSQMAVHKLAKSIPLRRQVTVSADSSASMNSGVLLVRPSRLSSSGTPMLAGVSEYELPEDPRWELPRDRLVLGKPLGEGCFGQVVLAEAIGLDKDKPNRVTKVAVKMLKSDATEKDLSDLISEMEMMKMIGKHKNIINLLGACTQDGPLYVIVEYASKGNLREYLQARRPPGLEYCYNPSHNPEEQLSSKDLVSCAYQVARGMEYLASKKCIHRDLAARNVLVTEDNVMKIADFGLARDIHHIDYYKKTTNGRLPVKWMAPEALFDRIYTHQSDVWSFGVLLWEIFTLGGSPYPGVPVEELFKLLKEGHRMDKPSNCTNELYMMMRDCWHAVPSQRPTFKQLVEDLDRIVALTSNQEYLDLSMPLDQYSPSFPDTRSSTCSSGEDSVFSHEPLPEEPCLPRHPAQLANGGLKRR
READOUT LABEL: pIC50
One number for each entry, as −log10 of the molar value.

{"columns": ["COMPOUND", "NUMERIC READOUT"],
 "data": [
  ["C=CC(=O)Nc1cc(N(C)CCC(F)(F)F)ccc1C(=O)Nc1cc(CCc2cc(OC)cc(OC)c2)n[nH]1 [Compound 13]", 8.47]
]}

Can you give me pIC50 for all of these, one by one?
1. C=CC(=O)Nc1cc(N2CCN(CCC(F)(F)F)CC2)cnc1C(=O)Nc1cc(CCc2cc(OC)cc(OC)c2)n[nH]1 [Compound 15]
2. C=CC(=O)Nc1cc(OCC(F)(F)F)ccc1C(=O)Nc1cc(CCc2cc(OC)cc(OC)c2)n[nH]1 [Compound 5]
3. C=CC(=O)Nc1cc(N2CC(F)(F)C2)ccc1C(=O)Nc1cc(CCc2cc(OC)cc(OC)c2)n[nH]1 [Compound 6]

## Output
1: 8.32; 2: 8.57; 3: 8.62

Can you give me pIC50 for all of these, one by one?
1. C=CC(=O)Nc1ccccc1C(=O)Nc1cc(CCc2cc(OC)cc(OC)c2)[nH]n1 [Control a, reference compound]
2. C=CC(=O)Nc1cc(N2CCN(CCC(F)(F)F)CC2)ccc1C(=O)Nc1cc(CCc2cc(OC)cc(OC)c2)n[nH]1 [Compound 1]

## Output
1. 8.35
2. 8.72
